B1: library; a variant is named by its letters at N, in order (parent)
chain: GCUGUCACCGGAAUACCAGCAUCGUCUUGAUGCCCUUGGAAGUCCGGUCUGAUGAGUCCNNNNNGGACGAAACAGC

variants of: B1; test: FACS-Seq fitted mean relative fluorescence mCherry/BFP with ligand (log10 relative fluorescence); ligand concentration (+) FACS-Seq: 1 mM; higher = higher reporter protein expression; conditions: HEK293T, ligand present: yes

>  <sequenceInput>
GCUGUCACCGGAAUACCAGCAUCGUCUUGAUGCCCUUGGAAGUCCGGUCUGAUGAGUCCAACGGGGACGAAACAGC

>  <FACS-Seq fitted mean (log10)>
0.998

$$$$
>  <sequenceInput>
GCUGUCACCGGAAUACCAGCAUCGUCUUGAUGCCCUUGGAAGUCCGGUCUGAUGAGUCCUAACGGGACGAAACAGC

>  <FACS-Seq fitted mean (log10)>
0.711

$$$$
>  <sequenceInput>
GCUGUCACCGGAAUACCAGCAUCGUCUUGAUGCCCUUGGAAGUCCGGUCUGAUGAGUCCAACCUGGACGAAACAGC

>  <FACS-Seq fitted mean (log10)>
0.698

$$$$
